- Test system: 233499-124-R-J3-PDC complex spheroid viability, % test/control;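 also: spheroids exposed to agents for one week before readout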
- measurement notes: Anticancer human tumor 233499-124-R-J3-PDC patient-derived colon adenocarcinoma cell line growth inhibition; active = viability on the fitted dose curve at most 10% of control; inactive = the rest
- test conditions: second compound 10 µM; first compound 0.0316 µM
Would you mind answering with one of these outcomes? class 1 for active, class 0 for inactive

| molecule | group label |
| --- | --- |
| O=C(c1cc(Cc2n[nH]c(=O)c3ccccc23)ccc1F)N1CCN(C(=O)C2CC2)CC1 + NC1CC1c1ccc(-c2cccc(O)c2)cc1 | class 0 |
| Nc1ncn(C2CC(O)C(CO)O2)c(=O)n1 (stereo not drawn) + NC1CC1c1ccc(-c2cccc(O)c2)cc1 | class 0 |
| CC[C@@]1(O)C(=O)OCc2c1cc1n(c2=O)Cc2cc3c(CN(C)C)c(O)ccc3nc2-1 + NC1CC1c1ccc(-c2cccc(O)c2)cc1 | class 0 |
| Cn1ncnc1C1c2n[nH]c(=O)c3cc(F)cc(c23)NC1c1ccc(F)cc1 (stereo not drawn) + NC1CCC(NC2CC2c2ccccc2)CC1 | class 0 |

Alright, here's another molecule for you.
Incoming: Dear colleague, could you share the recorded outcome for CC1(C)CCC(CN2CCN(c3ccc(C(=O)NS(=O)(=O)c4ccc(NCC5CCOCC5)c([N+](=O)[O-])c4)c(Oc4cnc5[nH]ccc5c4)c3)CC2)=C(c2ccc(Cl)cc2)C1 + NC1CC1c1ccc(-c2cccc(O)c2)cc1 when you have a moment?
Outgoing: class 0
